- System: NCI-H23 lung
- assayName: NCI-60 one-dose screen, 48 h
- conditions: 10 µM unless noted
About 83,000 compounds went through this panel and 20% of them were active in at least one assay; those are over-represented in the sample as a whole. Calls of active or inactive are those of the source. Rule for the calls: active = growth percent below 10; inactive = the rest.
Outcomes: true (1) = active, false (0) = inactive

{"columns": ["compound", "labelValue"],
 "data": [
  ["COc1ccc(-c2cc(-c3ccc(Cl)cc3)nc(SCCCCCCC(=O)NO)n2)cc1", "true (1)"],
  ["CCCCCCCCCCCCCC[n+]1cccc(C(N)=O)c1", "false (0)"],
  ["O=C(NCCCNC(=O)OCc1ccc2c(Br)cc(Br)c(O)c2n1)OCc1ccc2c(Br)cc(Br)c(O)c2n1", "true (1)"],
  ["COC(=O)[C@H](CC(C)C)NC(=O)NC(=O)NC(=O)CI", "false (0)"],
  ["CCCCCCCCCCCCCCNC(=O)Nc1ccc(Cl)c(Cl)c1", "true (1)"],
  ["Cc1ccccc1-n1nnc(C(=O)Nc2nc3ccc(F)cc3s2)c1C", "false (0)"],
  ["COc1ccc(-c2cc(-c3ccccc3)nc(NCCNc3ccnc4cc(Cl)ccc34)n2)cc1", "true (1)"],
  ["O=C1/C(=C/c2cccc(OCc3ccccc3)c2)Oc2cc(OCCN3CCCCC3)ccc21", "false (0)"],
  ["CCN(CC)c1ccc2cc(C(Nc3ccc(Br)c(C(F)(F)F)c3)c3nnnn3C(C)(C)C)c(=O)oc2c1 (centres undefined)", "false (0)"],
  ["COc1cc2c(cc1OCCCCCOc1ccc(-n3c(C)nc4ccccc4c3=O)cc1)N=C[C@@H]1CCCN1C2=O", "true (1)"],
  ["CCCCCCCCCCCCNC(=S)N/N=C/c1ccccc1O", "false (0)"],
  ["Cc1ccccc1OC(=O)c1cccc(Cl)c1", "false (0)"],
  ["CSc1cccc([N+](=O)[O-])c1", "false (0)"],
  ["CC(C)(C)OC(=O)N1C=C/C(=C\\Cn2cc(-c3ccccc3)nn2)CC1", "false (0)"]
]}
